target: Voltage-gated potassium channel subunit beta-2 (Rattus norvegicus) (UniProt P62483); assay: enhancers of rat Kvbeta2 NADPH turnover – biochemical, NADPH fluorescence, primary screen (AID 623); conditions: Recombinant KvBeta, NADPH fluorescence decrease slope, 10 min; at 10 µM; active compounds read low;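 also: fluorescence intensity change per second fitted from 20 to 320 s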
Sequence (P62483 whole entry, looked up): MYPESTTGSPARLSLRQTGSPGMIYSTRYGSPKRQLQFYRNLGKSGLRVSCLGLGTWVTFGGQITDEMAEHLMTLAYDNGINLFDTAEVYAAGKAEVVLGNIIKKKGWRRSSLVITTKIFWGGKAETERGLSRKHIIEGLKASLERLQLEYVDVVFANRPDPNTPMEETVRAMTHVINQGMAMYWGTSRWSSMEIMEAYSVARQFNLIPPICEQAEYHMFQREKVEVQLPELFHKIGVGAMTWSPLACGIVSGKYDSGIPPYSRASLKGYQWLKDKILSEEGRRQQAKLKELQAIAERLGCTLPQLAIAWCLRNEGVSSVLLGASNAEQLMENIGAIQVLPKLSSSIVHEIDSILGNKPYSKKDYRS
metric.name: NADPH fluorescence slope
Please respond with just the number, no unit label.

COc1ccc2[nH]c(=O)c(CN(Cc3cccs3)S(=O)(=O)c3cccc4nsnc34)cc2c1 ... -0.000153
O=S(=O)(Nc1ncccn1)c1ccc(Nc2ncnc3ccccc23)cc1 ... -4.3e-05
Clc1ccc(OCc2nc(-c3ccccn3)no2)c(Br)c1 ... -8.6e-06
COC(=O)c1c(-c2cccs2)csc1NC(=O)CN1CCOCC1 ... -5.2e-05
Cc1ccc(Cn2c(=N)c(C(=O)NCc3ccco3)cc3c(=O)n4ccccc4nc32)cc1 ... -5.9e-05

Which measured NADPH fluorescence slope value corresponds to CC(C)(C)n1nnnc1C(c1ccccc1)N1CCc2ccccc2C1 (configuration not stated) ?
-0.000258

Which measured NADPH fluorescence slope value corresponds to O=C(Cn1cnc2c(nnn2Cc2ccc(Cl)cc2)c1=O)NCC1CCCO1 (configuration not stated) ?
-4.5e-06

Which measured NADPH fluorescence slope value corresponds to `COc1cccc(-c2nnc(NC(C)=O)o2)c1` ?
-6.1e-05

Which measured NADPH fluorescence slope value corresponds to `Cc1cc(C(N)=O)c2cc(Br)ccc2n1` ?
-5.1e-05

Which measured NADPH fluorescence slope value corresponds to `CCOc1cc(C(=O)NCc2ccncc2)cc(OCC)c1OCC` ?
-4.6e-05

Which measured NADPH fluorescence slope value corresponds to `C=CCn1c(CC#N)nnc1N1CCOCC1` ?
2.7e-05

Which measured NADPH fluorescence slope value corresponds to `Cc1ccccc1OCCCN1C(=O)C(=O)c2cccc(C)c21` ?
-5e-05
